Procedure details: qHTS assay for identifying genotoxic compounds that show differential cytotoxicity against isogenic chicken DT40 cell lines with known DNA damage response pathways - Rad54/Ku70 mutant cell line (AID 743015); also: nearly all actives have a fitted effect of over 60% in size
Test context: DT40 Rad54/Ku70 mutant viability, CellTiter-Glo, 40 h; series mostly up to 66.8 µM
Inconclusive results are not listed. The source made the active and inactive calls. Calls follow the shape of the dose curve; as a rule, active = well fitted cell-killing curve with a large enough effect in the repeat runs; inconclusive = weak or mixed curves; inactive = no such curve, though single readings can be large or run the other way.
Result type: outcome

Worked examples, 5 molecules total:
Molecule: CC(C)(CO)CO
outcome: inactive
//
Molecule: NC(=O)NC(N)=O
outcome: inactive
//
Molecule: CCOC(=O)c1ccc(O)cc1
outcome: inactive
//
Molecule: CC(=O)C(C)C
outcome: inactive
//
Molecule: C=C(C)CC(C)(C)C
outcome: inactive

Fill in the blank: the reported outcome of `Cc1ccccc1Cl` is ____.
inactive

Fill in the blank: the reported outcome of `O=C1O[C@H]([C@H](O)CO)C(O)=C1O` is ____.
inactive

Fill in the blank: the reported outcome of CC(C=O)Cc1ccc(C(C)(C)C)cc1 (centres undefined) is ____.
inactive

Fill in the blank: the reported outcome of `C=C(CC(=O)O)C(=O)O` is ____.
inactive

* * *

Procedure details: Human pregnane X receptor (PXR) small molecule agonists, qHTS cell viability counter screen (AID 1346977); also: nearly all actives have a fitted effect of over 50% in size
Test context: PXR-Luc HepG2 viability, CellTiter-Fluor, 24 h; series mostly up to 92.4 µM
Results filed as inconclusive are left out. Calls of active or inactive are those of the source. Calls follow the shape of the dose curve; as a rule, active = well fitted cell-killing curve with a large enough effect in the repeat runs; inconclusive = weak or mixed curves, or effect the other way; inactive = flat fitted curve, though single readings scatter.
The reply should be one of these categories: Y = active, N = inactive

Compound: OCC(O)CS (centres undefined)
Label: N
--
Compound: Cc1ncc(CO)c(CO)c1O
Label: N

Can you look up the reported call for `NCCNCCNCCN` for me?
N

Can you look up the reported call for `N[C@@H](Cc1cc(I)c(Oc2ccc(O)c(I)c2)c(I)c1)C(=O)O` for me?
N

Can you look up the reported call for `Nc1nc(N)c2nc(-c3ccccc3)c(N)nc2n1` for me?
N

Can you look up the reported call for `CCCCCNCCCCC` for me?
N

* * *

Procedure details: qHTS assay to identify small molecule agonists of the estrogen receptor beta (ER-beta) signaling pathway - cell viability counter screen (AID 1259380); also: nearly all actives have a fitted effect of over 30% in size
Test context: ER-beta-bla HEK293T viability, CellTiter-Glo luminescence, 16 h; series mostly up to 92.4 µM
Results filed as inconclusive are left out. Active and inactive are the calls of the source. Calls follow the shape of the dose curve; as a rule, active = well fitted cell-killing curve with a large enough effect in the repeat runs; inconclusive = weak or mixed curves, or effect the other way; inactive = flat fitted curve, though single readings scatter.
The reply should be one of these categories: label 1 = active, label 0 = inactive

Can you look up the reported call for `C[n+]1ccn(CCO)c1` for me?
label 0

Can you look up the reported call for `OC[C@H]1O[C@@H](Oc2ccc(O)cc2)[C@H](O)[C@@H](O)[C@@H]1O` for me?
label 0

Can you look up the reported call for `Cc1cc(C)cc(O)c1` for me?
label 0

Can you look up the reported call for `CCCCCCC(=O)O` for me?
label 0

Can you look up the reported call for `NC(N)=S` for me?
label 0

* * *

Procedure details: qHTS assay to identify small molecule antagonists of the thyroid receptor (TR) signaling pathway (AID 743065); also: nearly all actives have a fitted effect of over 55% in size
Test context: GH3.TRE-Luc, T3-stimulated luciferase inhibition, 23.5 h; series mostly up to 70.3 µM
Inconclusive results are not listed. The source made the active and inactive calls. The call rests on the fitted dose curve; in most records, active means well fitted inhibition curve with a large enough effect in the repeat runs; inconclusive means weak or mixed curves; inactive means no such curve, though single readings can be large or run the other way.
Result type: outcome

Worked examples, 5 compounds total:
Chem smiles: C=C(CC(=O)O)C(=O)O
outcome: inactive
//
Chem smiles: CCn1cc(C(=O)O)c(=O)c2cc3c(cc21)OCO3
outcome: inactive
//
Chem smiles: CCOC(=O)c1ccc(O)cc1
outcome: inactive
//
Chem smiles: Cc1ccc(C)c(S(=O)(=O)O)c1
outcome: inactive
//
Chem smiles: CCc1cccc(O)c1
outcome: inactive

Fill in the blank: the reported outcome of `CCCCCCC(=O)O` is ____.
inactive

Fill in the blank: the reported outcome of `CC(C)(CO)CO` is ____.
inactive

All values here come from PubChem BioAssay (Tox21).
